Molecular target: GmPOPB-S577A (inactive mutant) (Galerina marginata, UniProt H2E7Q8, S577A)
Construct: His-tag (TEV-cleavable) (cleaved yes); made in house; host or cells: E. coli BL21(DE3)
Test: Isothermal titration calorimetry, peptide binding to inactive mutant GmPOPB_S577A
Conditions: ITC, GmPOPB_S577A, 20 °C; average ± SEM
No end group written: not given here.
PROPERTY: -TΔS (kcal/mol)

>>> print(df.to_string())
                           residue_sequence  numeric_result
0                        IWGIGCNPWT [10mer]            -2.4
1                     IWGIGCNPWTAEH [13mer]            -6.9
2     TLASGNDIC [9mer-recognition sequence]             2.6
3                      IWGIGCNPWTAE [12mer]            -5.3
4  VDQTLASGNDIC [12mer-recognition sequence]            16.3
5                    IWGIGCNPWTAEHV [14mer]            -5.8

====

Biological target: GmPOPB-S577A (inactive mutant) (Galerina marginata, UniProt H2E7Q8, S577A)
Construct: His-tag (TEV-cleavable) (cleaved yes); made in house; host or cells: E. coli BL21(DE3)
Assay: Isothermal titration calorimetry, peptide binding to inactive mutant GmPOPB_S577A
Conditions: ITC, GmPOPB_S577A, 20 °C; average ± SEM
No end group written: not given here.
# Lookup of reported ΔH keyed by entry
PROPERTY: ΔH

In [3]: df
Out[3]:
                           residue_sequence                result
0  VDQTLASGNDIC [12mer-recognition sequence]  -23.5 ± 3.1 kcal/mol
1     TLASGNDIC [9mer-recognition sequence]   -6.4 ± 1.6 kcal/mol
2                      IWGIGCNPWTAE [12mer]   -1.0 ± 0.3 kcal/mol
3                    IWGIGCNPWTAEHV [14mer]   -0.9 ± 0.2 kcal/mol
4                       IWGIGCNPWTA [11mer]   -1.5 ± 0.7 kcal/mol
5                        IWGIGCNPWT [10mer]   -3.1 ± 0.5 kcal/mol
6                     IWGIGCNPWTAEH [13mer]   -0.6 ± 0.2 kcal/mol
